- System under test: TDP-43 (Homo sapiens, UniProt Q13148 1-414)
- Sequence (Q13148 whole entry): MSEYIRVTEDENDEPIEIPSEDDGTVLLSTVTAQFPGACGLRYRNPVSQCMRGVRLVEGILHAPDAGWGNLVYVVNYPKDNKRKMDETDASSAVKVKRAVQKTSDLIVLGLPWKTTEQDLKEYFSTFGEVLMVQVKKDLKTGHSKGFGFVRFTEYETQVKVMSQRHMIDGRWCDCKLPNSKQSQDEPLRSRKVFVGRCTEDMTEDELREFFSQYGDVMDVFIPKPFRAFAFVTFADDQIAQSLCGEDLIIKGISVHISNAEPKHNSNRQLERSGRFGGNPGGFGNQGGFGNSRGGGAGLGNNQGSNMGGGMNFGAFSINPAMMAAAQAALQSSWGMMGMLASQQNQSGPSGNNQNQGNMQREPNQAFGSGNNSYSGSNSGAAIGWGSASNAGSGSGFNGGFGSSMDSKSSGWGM
- Experiment notes: RNA Bind-n-Seq with designed 260-mer pool; 25 mM Tris-HCl, 150 mM KCl, 3 mM MgCl2, BSA (printed 500 mg/mL), 20 units/mL SUPERase IN; pH not stated; 500 nM RNA pool, 1 h, 4 C; TDP-43 5, 50, 500 nM; high values mean tight binding
- Condition parameters: protein: recombinant; tags: SBP (GST cleaved off with PreScission; pGEX-GST-SBP)
The full ranking holds about 9,900 sequences; the median of “r (bound/input frequency ratio)” is about 0.7, and the highest 2% start at about 6.5. The sample as a whole holds a higher share of the highest values than the screen did.
Property: binding signal

Previously resolved entries follow.
ENSMUSG00000022095.192|Fam160b2 (ssRNA) RNA: GGGAGUUCUACAGUCCGACGAUCGCUUCGAUAUCCGCAUGCUACAAGGAGGAGCAGGCCAGAGCCCCUUUUGCUUCCUUUUCCUGCCCAUGCCACCUCUCGAAGCCGGGCACAGGUUGCCAGGAGGUGACAUGAAAGAGGAGGAAACUCCAUGACCUCUACAUCCCCCGCAGUCCUCCCAGCGGGGGAGGACUUCUCUGCUGCUCCGAAGAACAUCAUGCACUCCUGUGUGUGUGUGUGAGUGUGUGUGUGUGUGUGUGUGUGUGUGUGUGUGUAUGUGUGUGUAUAUGUGUGUGUGUGUGUGCUCUUGCGGUCGCACUAGUGUGGAAUUCUCGGGUGUCAAGG : 8.2 R (bound/input frequency ratio)
ENSMUSG00000061578.1091|Ksr2|55:59 (ssRNA) RNA: GGGAGUUCUACAGUCCGACGAUCGCUUCGAUAUCCGCAUGCUACAACCAUGAAAAUAGAGGUUUGUAAUGUACAGAAGGCUGGGGGAGCUUUCAGGGCACACGCCAGUUAUGUACAGAUGUGAAGCUGAGGUCUGAAGGAAAUGGAGGAAGUAGGAAGAUCAGACUGGUUGAAUUAGAAGUCUGUCACUCUAGGUGCUAAGUGACCUUGGACCCAGUCAGUUCUUGGAUUUCUGUUGUAGCCCAGGCUAGCCUCGAACCCUUGAUCCUCCUGUUCCUGGUAGAGAAACAGCCACUAAAUGGUGCUCUUGCGGUCGCACUAGUGUGGAAUUCUCGGGUGUCAAGG : 0.848 R (bound/input frequency ratio)
ENSMUSG00000022095.184|Fam160b2 (ssRNA) RNA: GGGAGUUCUACAGUCCGACGAUCGCUUCGAUAUCCGCAUGCUACAGGCAUUACCUCACAACAGGCCUGCAGUUGUUGGCUUCCCUCCUGGGCAAGGAGGAGCAGGCCAGAGCCCCUUUUGCUUCCUUUUCCUGCCCAUGCCACCUCUCGAAGCCGGGCACAGGUUGCCAGGAGGUGACAUGAAAGAGGAGGAAACUCCAUGACCUCUACAUCCCCCGCAGUCCUCCCAGCGGGGGAGGACUUCUCUGCUGCUCCGAAGAACAUCAUGCACUCCUGUGUGUGUGUGUGAGUGUGUGUGUGUGUGCUCUUGCGGUCGCACUAGUGUGGAAUUCUCGGGUGUCAAGG : 3.46 R (bound/input frequency ratio)

Now, please, on to the next binder.
Any idea what binding signal was measured for ENSMUSG00000031028.91|Tub (ssRNA) RNA: GGGAGUUCUACAGUCCGACGAUCGCUUCGAUAUCCGCAUGCUACAAGCUGUAUGUAGAAAAAGCUCUGGUGGUCAGCAGAAAGCACUCCCACUUCAAAAGGGCCCAUUAGGCCCAAAGGGGGUUAGGAGUGGUAGGGAUAGGUGCGUGGCAGGUCCCUGCUAGGAUUGCAGGGGCCUGGCCAUGUGUAUUAGCUGGAGGCUUAGAAUGCUAGCUCAUUUGUUGCUACAGAUUUGCCCAGUGCUUGCACACGUAAGAACCCAGCUCUCAAGGCCAAAUAUCUGAGUGGAUGGGGAUGAUAGGAGCUCUUGCGGUCGCACUAGUGUGGAAUUCUCGGGUGUCAAGG ?
5.97 R (bound/input frequency ratio)
